Record form. Attribute: GI50. Fill in for each entry.
- System: TK-10
- METHOD: NCI tumour cell line growth inhibition, 48 h
Activity calls are given as the source filed them. No stated cut-off is given here; in the data, active = GI50 up to about 1.1 µM and inactive = higher.

Some entries whose results are on file:
COMPOUND: C/C(=N\O)c1ccc(OCc2cc(C(F)(F)F)cc(C(F)(F)F)c2)cc1
RESULT: > 100 µM (inactive)
//
COMPOUND: Cn1cnc([N+](=O)[O-])c1Sc1nccn1-c1ccccc1
RESULT: > 100 µM (inactive)
//
COMPOUND: COC(=O)C1OC(O[C@H]2CC[C@]3(C)[C@H]4CC=C5[C@@H]6CC(C)(C)CC[C@]6(C(=O)OC6OCC(O)C(O)C6OC6OC(C)C(OC7OCC(OC8OCC(O)C(O)C8O)C(O)C7O)C(O)C6O)[C@H](O)C[C@@]5(C)[C@]4(C)CC[C@H]3C2(C)C)C(O)C(O)C1O (some centres undefined)
RESULT: 9.51 µM (inactive)

Pending compound:
What value of GI50 has been reported for the following compound? CCCCCCCCCCNC(=S)OCCCC 14.7 µM (inactive)

The reported measurements were obtained from ChEMBL document CHEMBL1201862.
